- Test system: HCC-15
- assay explanation: relative viability (nuclei count vs DMSO), 5 days (fraction); higher = more cells survive
- condition info: first compound 1.265 µM
Reported relative viability values follow for various compounds

compound	relative viability
O=C(O)c1ccc(-c2c[nH]c3ncc(-c4ccccc4)cc23)cc1C1CCCC1 + Cc1nc(NC(=O)N2CCC[C@H]2C(N)=O)sc1-c1ccnc(C(C)(C)C(F)(F)F)c1 [Alpelisib] (partner 2 µM)	0.49
O=C(O)c1ccc(-c2c[nH]c3ncc(-c4ccccc4)cc23)cc1C1CCCC1 + Cc1nc(Nc2ncc(C(=O)Nc3c(C)cccc3Cl)s2)cc(N2CCN(CCO)CC2)n1 [Dasatinib] (partner 0.075 µM)	0.38
O=C(O)c1ccc(-c2c[nH]c3ncc(-c4ccccc4)cc23)cc1C1CCCC1 + CS(=O)(=O)N1CCN(Cc2cc3nc(-c4cccc5[nH]ncc45)nc(N4CCOCC4)c3s2)CC1 [Pictilisib] (partner 1 µM)	0.514
O=C(O)c1ccc(-c2c[nH]c3ncc(-c4ccccc4)cc23)cc1C1CCCC1 + Nc1ncn([C@H]2C[C@H](O)[C@@H](CO)O2)c(=O)n1 [Decitabine] (partner 2 µM)	0.381
O=C(O)c1ccc(-c2c[nH]c3ncc(-c4ccccc4)cc23)cc1C1CCCC1 + NC(=O)Nc1cc(-c2cccc(F)c2)sc1C(=O)N[C@H]1CCCNC1 [AZD7762] (partner 0.2 µM)	1.03

====

- Tested on: HCC-78
- assay explanation: relative viability (nuclei count vs DMSO), 5 days (fraction); higher = more cells survive
- condition info: first compound 0.253 µM
measured metric: relative viability

compound	reported measurement
C=C1C(=O)O[C@@H](CCCCCCCC)[C@@H]1C(=O)O [C-75] + CS(=O)(=O)N1CCN(Cc2cc3nc(-c4cccc5[nH]ncc45)nc(N4CCOCC4)c3s2)CC1 [Pictilisib] (partner 1 µM)	0.217
C=C1C(=O)O[C@@H](CCCCCCCC)[C@@H]1C(=O)O [C-75] + Cc1nc(Nc2ncc(C(=O)Nc3c(C)cccc3Cl)s2)cc(N2CCN(CCO)CC2)n1 [Dasatinib] (partner 0.075 µM)	0.469
Oc1nc(-c2ccc(C(F)(F)F)cc2)nc2c1CSCC2 [XAV939] + Cc1nc(Nc2ncc(C(=O)Nc3c(C)cccc3Cl)s2)cc(N2CCN(CCO)CC2)n1 [Dasatinib] (partner 0.075 µM)	0.398
C=C1C(=O)O[C@@H](CCCCCCCC)[C@@H]1C(=O)O [C-75] + Nc1ncn([C@H]2C[C@H](O)[C@@H](CO)O2)c(=O)n1 [Decitabine] (partner 2 µM)	0.676
C=C1C(=O)O[C@@H](CCCCCCCC)[C@@H]1C(=O)O [C-75] + Cc1cc(Nc2cc(N3CCN(C)CC3)nc(Sc3ccc(NC(=O)C4CC4)cc3)n2)n[nH]1 [Tozasertib] (partner 0.1 µM)	0.505
C=C1C(=O)O[C@@H](CCCCCCCC)[C@@H]1C(=O)O [C-75] + NC(=O)Nc1cc(-c2cccc(F)c2)sc1C(=O)N[C@H]1CCCNC1 [AZD7762] (partner 0.2 µM)	0.409

====

- Test system: LC-2-ad
- assay explanation: relative viability (nuclei count vs DMSO), 5 days (fraction); higher = more cells survive
- condition info: first compound 0.253 µM

molecule	relative viability
C=C1C(=O)O[C@@H](CCCCCCCC)[C@@H]1C(=O)O [C-75] + CC1(C)CCC(c2ccc(Cl)cc2)=C(CN2CCN(c3ccc(C(=O)NS(=O)(=O)c4ccc(N[C@H](CCN5CCOCC5)CSc5ccccc5)c(S(=O)(=O)C(F)(F)F)c4)cc3)CC2)C1 [Navitoclax] (partner 0.5 µM)	0.56
Oc1nc(-c2ccc(C(F)(F)F)cc2)nc2c1CSCC2 [XAV939] + Cc1cc(Nc2cc(N3CCN(C)CC3)nc(Sc3ccc(NC(=O)C4CC4)cc3)n2)n[nH]1 [Tozasertib] (partner 0.1 µM)	0.446

====

- System: NCI-H2087
- assay explanation: relative viability (nuclei count vs DMSO), 5 days (fraction); higher = more cells survive
- condition info: first compound 2.53 µM
measured metric: relative viability

compound	measured metric	reported measurement
Oc1nc(-c2ccc(C(F)(F)F)cc2)nc2c1CSCC2 [XAV939] + Nc1nc2[nH]cc(CCc3ccc(C(=O)N[C@@H](CCC(=O)O)C(=O)O)cc3)c2c(=O)[nH]1 [Pemetrexed] (partner 0.2 µM)	relative viability	0.552
Oc1nc(-c2ccc(C(F)(F)F)cc2)nc2c1CSCC2 [XAV939] + Cc1cc(Nc2cc(N3CCN(C)CC3)nc(Sc3ccc(NC(=O)C4CC4)cc3)n2)n[nH]1 [Tozasertib] (partner 0.1 µM)	relative viability	0.181
Oc1nc(-c2ccc(C(F)(F)F)cc2)nc2c1CSCC2 [XAV939] + COc1cccc2cc(-c3nc([C@H]4CC[C@H](C(=O)O)CC4)n4ncnc(N)c34)[nH]c12 [OSI-027] (partner 0.5 µM)	relative viability	0.46
C=C1C(=O)O[C@@H](CCCCCCCC)[C@@H]1C(=O)O [C-75] + CC1(C)CCC(c2ccc(Cl)cc2)=C(CN2CCN(c3ccc(C(=O)NS(=O)(=O)c4ccc(N[C@H](CCN5CCOCC5)CSc5ccccc5)c(S(=O)(=O)C(F)(F)F)c4)cc3)CC2)C1 [Navitoclax] (partner 0.5 µM)	relative viability	0.927

====

- System: NCI-H322M
- assay explanation: relative viability (nuclei count vs DMSO), 5 days (fraction); higher = more cells survive
- condition info: first compound 0.1265 µM
A collection of compounds and their measured relative viability
measured metric: relative viability

compound	assayed target	reported measurement
O=C(O)c1ccc(-c2c[nH]c3ncc(-c4ccccc4)cc23)cc1C1CCCC1 + O=C(c1cc(Cc2n[nH]c(=O)c3ccccc23)ccc1F)N1CCN(C(=O)C2CC2)CC1 [Olaparib] (partner 8 µM)	NCI-H322M	0.718
O=C(O)c1ccc(-c2c[nH]c3ncc(-c4ccccc4)cc23)cc1C1CCCC1 + N=C(N)NC(=N)NCCc1ccccc1 [Phenformin] (partner 250 µM)	NCI-H322M	0.832
O=C(O)c1ccc(-c2c[nH]c3ncc(-c4ccccc4)cc23)cc1C1CCCC1 + CCNC(=O)c1noc(-c2cc(C(C)C)c(O)cc2O)c1-c1ccc(CN2CCOCC2)cc1 [Luminespib] (partner 0.01 µM)	NCI-H322M	0.934
O=C(O)c1ccc(-c2c[nH]c3ncc(-c4ccccc4)cc23)cc1C1CCCC1 + CC(=O)Nc1cccc(-n2c(=O)n(C3CC3)c(=O)c3c(Nc4ccc(I)cc4F)n(C)c(=O)c(C)c32)c1 [Trametinib] (partner 0.02 µM)	NCI-H322M	0.633
O=C(O)c1ccc(-c2c[nH]c3ncc(-c4ccccc4)cc23)cc1C1CCCC1 + CS(=O)(=O)CCNCc1ccc(-c2ccc3ncnc(Nc4ccc(OCc5cccc(F)c5)c(Cl)c4)c3c2)o1 [Lapatinib] (partner 2 µM)	NCI-H322M	0.618

====

- Test system: SW 900
- assay explanation: relative viability (nuclei count vs DMSO), 5 days (fraction); higher = more cells survive
- condition info: first compound 0.01581 µM
measured metric: relative viability

compound	reported measurement
CC1(C)CCC(c2ccc(Cl)cc2)=C(CN2CCN(c3ccc(C(=O)NS(=O)(=O)c4ccc(N[C@H](CCN5CCOCC5)CSc5ccccc5)c(S(=O)(=O)C(F)(F)F)c4)cc3)CC2)C1 [Navitoclax] + NC(=O)Nc1cc(-c2cccc(F)c2)sc1C(=O)N[C@H]1CCCNC1 [AZD7762] (partner 0.2 µM)	0.651
CC1(C)CCC(c2ccc(Cl)cc2)=C(CN2CCN(c3ccc(C(=O)NS(=O)(=O)c4ccc(N[C@H](CCN5CCOCC5)CSc5ccccc5)c(S(=O)(=O)C(F)(F)F)c4)cc3)CC2)C1 [Navitoclax] + Nc1ncn([C@H]2C[C@H](O)[C@@H](CO)O2)c(=O)n1 [Decitabine] (partner 2 µM)	0.412
CC1(C)CCC(c2ccc(Cl)cc2)=C(CN2CCN(c3ccc(C(=O)NS(=O)(=O)c4ccc(N[C@H](CCN5CCOCC5)CSc5ccccc5)c(S(=O)(=O)C(F)(F)F)c4)cc3)CC2)C1 [Navitoclax] + Cc1cc(Nc2cc(N3CCN(C)CC3)nc(Sc3ccc(NC(=O)C4CC4)cc3)n2)n[nH]1 [Tozasertib] (partner 0.1 µM)	0.46

====

As shown below, each of these compounds has a reported relative viability value.
- Tested on: SK-LU-1
- assay explanation: relative viability (nuclei count vs DMSO), 5 days (fraction); higher = more cells survive
- condition info: first compound 0.3162 µM
measured metric: relative viability

compound	assayed target	reported measurement
NC(=O)Nc1cc(-c2cccc(F)c2)sc1C(=O)N[C@H]1CCCNC1 [AZD7762] + CC1(C)CCC(c2ccc(Cl)cc2)=C(CN2CCN(c3ccc(C(=O)NS(=O)(=O)c4ccc(N[C@H](CCN5CCOCC5)CSc5ccccc5)c(S(=O)(=O)C(F)(F)F)c4)cc3)CC2)C1 [Navitoclax] (partner 0.5 µM)	SK-LU-1	0.103
NC(=O)Nc1cc(-c2cccc(F)c2)sc1C(=O)N[C@H]1CCCNC1 [AZD7762] + Cc1nc(NC(=O)N2CCC[C@H]2C(N)=O)sc1-c1ccnc(C(C)(C)C(F)(F)F)c1 [Alpelisib] (partner 2 µM)	SK-LU-1	0.207
NC(=O)Nc1cc(-c2cccc(F)c2)sc1C(=O)N[C@H]1CCCNC1 [AZD7762] + Cc1cc(Nc2cc(N3CCN(C)CC3)nc(Sc3ccc(NC(=O)C4CC4)cc3)n2)n[nH]1 [Tozasertib] (partner 0.1 µM)	SK-LU-1	0.128
NC(=O)Nc1cc(-c2cccc(F)c2)sc1C(=O)N[C@H]1CCCNC1 [AZD7762] + Nc1ncn([C@H]2C[C@H](O)[C@@H](CO)O2)c(=O)n1 [Decitabine] (partner 2 µM)	SK-LU-1	0.281
NC(=O)Nc1cc(-c2cccc(F)c2)sc1C(=O)N[C@H]1CCCNC1 [AZD7762] + CS(=O)(=O)N1CCN(Cc2cc3nc(-c4cccc5[nH]ncc45)nc(N4CCOCC4)c3s2)CC1 [Pictilisib] (partner 1 µM)	SK-LU-1	0.176
